System: Bovine cardiac myofibrils
Assay: Dose-dependent myofibril ATPase modulation (calcium-buffered, pyruvate kinase and lactate dehydrogenase-coupled ATPase assay at pCa25)
Assay type: biochemical
Conditions: concentration at which ATPase activity was 1.4-fold higher than the bottom of the dose curve, mean of a minimum of two independent tests
Description: In Vitro Model of Dose-Dependent Myofibril ATPase Modulation Dose responses were measured using a calcium-buffered, pyruvate kinase and lactate dehydrogenase-coupled ATPase assay containing the following reagents (concentrations expressed are final assay concentrations): Potassium PIPES (12 mM), MgCl2 (2 mM), ATP (1 mM), DTT (1 mM), BSA (0.1 mg/ml), NADH (0.5 mM), PEP (1.5 mM), pyruvate kinase (4 U/ml), lactate dehydrogenase (8 U/ml), and antifoam (90 ppm). […]
quantity: AC1.4 (µM)

Sample answers from the record:
compound=Cc1[nH]c(S(=O)(=O)N[C@@H]2CCc3c([nH]c4ccccc34)C2)cc1C(=O)N1CC(C)(O)C1 study_system="Bovine cardiac myofibrils" endpoint_result=0.1254
compound="Cc1[nH]c(S(=O)(=O)N[C@]2(Cc3ccc(Cl)cc3)CCOC2)cc1C(=O)NCC(F)F (single isomer, unassigned)" study_system="Bovine cardiac myofibrils" endpoint_result=3.2638
compound=CNc1cc2c(cc1S(=O)(=O)NC1CCN(c3ccccc3)CC1)c(=O)[nH]c(=O)n2C study_system="Bovine cardiac myofibrils" endpoint_result=2.8354

(A) CNc1cc2nc(C)[nH]c(=O)c2cc1S(=O)(=O)NC1CCc2c([nH]c3ccccc23)C1 (stereo not shown)
(B) Cc1nc2cc(OCCN3CCOCC3)c(S(=O)(=O)Nc3ccc(N4C[C@H](C)C[C@@H](C)C4)nc3)cc2c(=O)[nH]1
Return label of the item with the larger AC1.4. Candidates: A , B . // return label of chosen record
B

(a) Cc1[nH]c(S(=O)(=O)N[C@@H]2COc3ccc(Cl)cc3C2)cc1C(=O)N1CC(C)(C#N)C1
(b) CNc1cc2c(cc1S(=O)(=O)N[C@H]1C[C@@H](Nc3cccc(F)c3)C1)c(=O)[nH]c(=O)n2C
Hi, I'm comparing a with b and wondering which one has the bigger number for AC1.4. Any idea? Answer = label.
a

###

Test system: Bovine cardiac myofibrils
Test: Dose-dependent myofibril ATPase modulation (calcium-buffered, pyruvate kinase and lactate dehydrogenase-coupled ATPase assay at pCa25)
Assay type: biochemical
Details: concentration at which ATPase activity was 1.4-fold higher than the bottom of the dose curve, mean of a minimum of two independent tests
quantity: AC1.4 (µM)

molecular_string=CNc1cc2c(cc1S(=O)(=O)N[C@H]1C[C@H](n3cc(C(F)(F)F)c(C)n3)C1)c(=O)[nH]c(=O)n2C unit_of_measurement=µM endpoint_result=0.3215

(1) Cc1[nH]c(S(=O)(=O)N[C@@H]2CCc3c([nH]c4ccccc34)C2)cc1C(=O)N1CCCC1
(2) CNc1cc2nc(C)[nH]c(=O)c2cc1S(=O)(=O)N[C@H]1C[C@@H](Nc2cccc(F)c2)C1
(3) CNc1cc2c(cc1S(=O)(=O)N[C@H]1C[C@H](Nc3ccccc3)C1)c(=O)[nH]c(=O)n2C
List from greatest to least AC1.4. I would appreciate it if you listed the labels in the requested order.
3, 2, 1
(3: 5.571 µM, 2: 1.019 µM, 1: 0.2277 µM)

###

Test system: Bovine cardiac myofibrils
Assay: Dose-dependent myofibril ATPase modulation (calcium-buffered, pyruvate kinase and lactate dehydrogenase-coupled ATPase assay at pCa25)
Assay type: biochemical
Details: concentration at which ATPase activity was 1.4-fold higher than the bottom of the dose curve, mean of a minimum of two independent tests
quantity: AC1.4 (µM)

Some solved cases for reference:
compound=COc1cc2nc(C)[nH]c(=O)c2cc1S(=O)(=O)Nc1ccc(N2C[C@H](C)C[C@@H](C)C2)nc1 unit_of_measurement=µM endpoint_result=1.3592
compound=Cc1[nH]c(S(=O)(=O)N[C@H]2C[C@H](n3cc(C(F)(F)F)cn3)C2)cc1C(=O)N1CC(C#N)C1 unit_of_measurement=µM endpoint_result=5.7638
compound="CNc1cc2nc(C)[nH]c(=O)c2cc1S(=O)(=O)N[C@@H]1CCc2c([nH]c3ccccc23)C1 (single isomer, unassigned)" unit_of_measurement=µM endpoint_result=0.0762
compound=Cc1[nH]c(S(=O)(=O)N[C@@H]2COc3cc(F)c(F)cc3C2)cc1C(=O)N1CC(C)(C#N)C1 unit_of_measurement=µM endpoint_result=0.3162
compound="COCCNC(=O)c1cc(S(=O)(=O)NC2CCc3c([nH]c4ccccc34)C2)[nH]c1C (centres unmarked)" unit_of_measurement=µM endpoint_result=2.9421
compound=Cc1[nH]c(S(=O)(=O)N[C@@H]2Cc3cc(F)c(Cl)cc3C2)cc1C(=O)N1CC(OC(F)(F)F)C1 unit_of_measurement=µM endpoint_result=0.6847
compound=Cc1[nH]c(S(=O)(=O)N[C@H]2C[C@H](c3cccc(F)c3)C2)cc1C(=O)N1CC(C)(C#N)C1 unit_of_measurement=µM endpoint_result=2.8889
compound=Cc1[nH]c(S(=O)(=O)N[C@@H]2COc3cc(F)c(Cl)cc3[C@H]2O)cc1C(=O)N1CC(C)(C#N)C1 unit_of_measurement=µM endpoint_result=0.1896
compound="CNc1cc2c(cc1S(=O)(=O)NC1CC(c3ccccc3)C1)c(=O)[nH]c(=O)n2C (centres unmarked)" unit_of_measurement=µM endpoint_result=3.9537

(a) Cc1[nH]c(S(=O)(=O)Nc2ccc(N3C[C@H](C)C[C@@H](C)C3)nc2)cc1C(=O)N1CC(F)(F)C1
(b) Cc1[nH]c(S(=O)(=O)N[C@H]2COc3ccc(Cl)cc3[C@@H]2O)cc1C(=O)N1CC(C)(C#N)C1
Lab log: flag the item ( a or b ) with the smaller AC1.4 figure. # answer = label of selected item
b
(b: 0.5877 µM, a: 2.9024 µM)
